// data source = ChEMBL document CHEMBL4229376

assay name: Drug uptake in Swiss mouse blood at 25 mg/kg, po administered as single dose after 24 hrs by UPLC/MS/ESI analysis
Assay type: ADME, organism-based
settings: whole blood, read-out: Drug uptake
measure name: concentration at 24 h (ng/mL)
Give the value in ng/mL but do not write ng/mL after it.

Supply measured concentration at 24 h of "Nc1nc(Nc2ccc(F)cc2)nc(Oc2ccc(F)cc2)n1" in your reply.
50

###

assay name: Drug metabolism in mouse liver microsomes assessed as UGT mediated compound […] by measuring parent compound remaining at 5 uM after 15 mins in presence of UDPGA by UPLC/MS/ESI analysis
Assay type: ADME
settings: 0.25 h
measure name: Stability (%)
Only the number, expressed in %, is required.

Supply recorded Stability for "Nc1nc(Nc2ccc(F)cc2)nc(Oc2ccc(F)cc2)n1" here.
97

Tell us which Stability value is on record for "O=C(O)Cc1ccccc1Nc1c(Cl)cccc1Cl"
38

Report measured Stability; entry is "Cc1ccc(Oc2nc(N)nc(Nc3ccc(F)cc3)n2)c(Cl)c1"
108

Give Stability for the following compound: "Cc1cc(C)c(Oc2nc(N)nc(Nc3ccc(F)cc3)n2)c(C)c1"
94

Give the reported value of Stability for this record: "Cc1ccc(Oc2nc(N)nc(Nc3ccc(F)cc3)n2)cc1"
91

###

assay name: Clearance in Swiss mouse infected with Trypanosoma brucei brucei Squib 427 at 25 mg/kg, po administered as single dose after 24 hrs by UPLC/MS/ESI analysis
Assay type: ADME, organism-based
settings: in vivo
measure name: CL/F

Answer with reported CL/F of "Nc1nc(Nc2ccc(F)cc2)nc(Oc2ccc(F)cc2)n1"
176 mL/min

###

Task for the reader: assign each of the following molecules its reported remaining at 0.5 h, 5 µM.
assay name: Drug metabolism in mouse liver microsomes assessed as CYP450 mediated compound […] by measuring parent compound remaining at 5 uM after 30 mins in presence of NADPH by UPLC/MS/ESI analysis
Format: ADME
settings: read-out: Stability
State the answer as a number, implicitly in %.

Indicate the recorded remaining at 0.5 h, 5 µM value for this molecule: "Cc1cc(C)c(Oc2nc(N)nc(Nc3ccc(F)cc3)n2)c(C)c1"
4

Tell me measured remaining at 0.5 h, 5 µM for "Cc1ccc(Oc2nc(N)nc(Nc3ccc(F)cc3)n2)c(Cl)c1" please.
6

Give recorded remaining at 0.5 h, 5 µM. "Nc1nc(Nc2ccc(F)cc2)nc(Oc2ccc(F)cc2)n1"
80

Quickly give me recorded remaining at 0.5 h, 5 µM for "Cc1ccc(Oc2nc(N)nc(Nc3ccc(F)cc3)n2)cc1"
28

###

assay name: AUC (0 to >4 hrs) in Swiss mouse infected with Trypanosoma brucei brucei Squib 427 at 50 mg/kg, po bid for 5 days by UPLC/MS/ESI analysis
Assay type: ADME, organism-based
settings: in vivo
measure name: AUC (ng·h/mL)
Number only, in ng·h/mL; omit the unit.

Tell us which AUC value is on record for "Nc1nc(Nc2ccc(F)cc2)nc(Oc2ccc(F)cc2)n1"
9350

###

assay name: Protein binding in mouse plasma at 2 uM after 6 hrs by equilibrium dialysis and LC-MS analysis
Type: ADME, cell-free
settings: read-out: PPB (converted)
measure name: fraction unbound at 6 h, 2 µM
Hey, just send me the number, nothing else.

Input "Nc1nc(Nc2ccc(F)cc2)nc(Oc2ccc(F)cc2)n1" , output reported fraction unbound at 6 h, 2 µM.
0.04
